B1: ZNF449 (parent)
chain: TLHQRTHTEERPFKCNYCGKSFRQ

- Variants of: B1
- assayRemarks: protein stability index of a GFP-peptide fusion (GPS, HEK-293T) (PSI 1-6); higher = more stable;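 note: lentivirally expressed fusions sorted by FACS into six bins by GFP to DsRed ratio, PSI derived from sequencing read proportions per bin multiplied by bin number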
- conditionParameters: c terminus: a fixed tail appended
quantityMeasured: protein stability index
Reply with the value as a number alone.

INSERT INTO results (biosequence, quantitymeasured, val) VALUES
  ('TLHQRTHTEERPFKCNYCGRSFRQ [K20R]', 'protein stability index', 3.28);

Prompt: Read off the recorded protein stability index for TLHQRTHTEQRPFKCNYCGKSFRQ [E10Q]
Completion: 2.56

Prompt: Read off the recorded protein stability index for TLHQRTHTEERPFKVNYCGKSFRQ [C15V]
Completion: 2.67

Prompt: Read off the recorded protein stability index for TLHQRDHTEERPFKCNYCGKSFRQ [T6D]
Completion: 2.56

Prompt: Read off the recorded protein stability index for TLHQRTHTEERPFKCNYCGKSFYQ [R23Y]
Completion: 2.72

Prompt: Read off the recorded protein stability index for TLHQRTHSEERPFKCNYCGKSFRQ [T8S]
Completion: 2.65

Prompt: Read off the recorded protein stability index for TLGQRTHTEERPFKCNYCGKSFRQ [H3G]
Completion: 2.4

Prompt: Read off the recorded protein stability index for TLHQRTHTEERVFKCNYCGKSFRQ [P12V]
Completion: 2.57

Prompt: Read off the recorded protein stability index for TLHQRSHTEERPFKCNYCGKSFRQ [T6S]
Completion: 3.12

Prompt: Read off the recorded protein stability index for TLHQRTHTEERPFKCNYCGKSFCQ [R23C]
Completion: 4.7

Prompt: Read off the recorded protein stability index for TLHQRTHTEERPFKCNYCGKRFRQ [S21R]
Completion: 2.38
